Target: Nicotinic acetylcholine receptor alpha 5 subunit (Musca domestica, UniProt A9XFY4)
Sequence (A9XFY4 whole entry): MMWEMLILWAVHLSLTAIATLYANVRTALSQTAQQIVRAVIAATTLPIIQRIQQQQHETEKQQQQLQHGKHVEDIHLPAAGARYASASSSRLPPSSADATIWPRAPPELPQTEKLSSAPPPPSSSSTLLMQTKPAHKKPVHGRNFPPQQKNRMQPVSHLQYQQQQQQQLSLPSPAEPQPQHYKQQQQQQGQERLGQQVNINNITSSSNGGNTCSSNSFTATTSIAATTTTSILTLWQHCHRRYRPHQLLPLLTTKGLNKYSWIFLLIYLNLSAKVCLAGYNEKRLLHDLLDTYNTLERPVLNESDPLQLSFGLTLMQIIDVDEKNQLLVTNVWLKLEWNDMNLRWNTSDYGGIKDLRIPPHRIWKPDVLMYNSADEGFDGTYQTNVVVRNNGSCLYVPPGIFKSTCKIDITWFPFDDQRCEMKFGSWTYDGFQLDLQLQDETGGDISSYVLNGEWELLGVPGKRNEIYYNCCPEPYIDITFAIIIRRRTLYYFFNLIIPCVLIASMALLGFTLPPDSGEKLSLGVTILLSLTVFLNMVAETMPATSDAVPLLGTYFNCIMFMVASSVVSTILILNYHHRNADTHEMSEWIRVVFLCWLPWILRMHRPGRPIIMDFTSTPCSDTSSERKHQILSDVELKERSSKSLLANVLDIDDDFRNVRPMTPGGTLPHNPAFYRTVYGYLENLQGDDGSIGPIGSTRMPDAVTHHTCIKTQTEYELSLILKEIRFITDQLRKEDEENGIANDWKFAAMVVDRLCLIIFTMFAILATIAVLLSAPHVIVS
Assay: Displacement of [3H]IMI from nicotinic acetylcholine receptor in Musca domestica (house fly) head membrane after 90 min by filter binding assay
VALUE_TYPE: IC50 (nM)
Respond numerically; units are nM and should not be typed.

Ask: Return reported IC50. Input compound: O=[N+]([O-])/N=C1\NCCN1Cc1ccc(Cl)nc1
Reply: 2.6

Ask: Return reported IC50. Input compound: CN/C(=N\[N+](=O)[O-])NCc1cnc(Cl)s1
Reply: 1.8

Ask: Return reported IC50. Input compound: C/N=C(\NCc1ccc(Cl)nc1)N[N+](=O)[O-]
Reply: 7.1

Ask: Return reported IC50. Input compound: O=[N+]([O-])/N=C1\NCOCN1Cc1cnc(Cl)s1
Reply: 16

Ask: Return reported IC50. Input compound: O=[N+]([O-])/N=C1\NCOCN1Cc1ccc(Cl)nc1
Reply: 14

Ask: Return reported IC50. Input compound: O=[N+]([O-])/N=C1\NCCN1Cc1cnc(Cl)s1
Reply: 12
